Reference for the values: PubChem BioAssay (NCATS)

- Test Summary: qHTS of pediatric cancer cell lines to identify multiple opportunities for drug repurposing: Primary screen for OHS-50 cells (AID 1347103); also: nearly all actives have a fitted effect of over 40% in size
- Condition Notes: OHS-50 osteosarcoma viability, CellTiter-Glo luminescence, 48 h; series mostly up to 57.3 µM
Records with an inconclusive call do not appear. Calls of active or inactive are those of the source. Calls follow the shape of the dose curve; as a rule, active = well fitted cell-killing curve with a large enough effect; inconclusive = small, poorly fitted or top-dose-only effect; inactive = no such curve, though single readings can be large or run the other way.
Result category, one only: active, inactive

Smiles Str: CON=C(C(=O)N[C@@H]1C(=O)N2C(C(=O)O)=C(CSC(=O)c3ccco3)CS[C@H]12)c1csc(N)n1
Class Name: inactive

Smiles Str: COc1cc(C=CC(=O)CC(=O)C=Cc2ccc(O)c(OC)c2)ccc1O
Class Name: active

Smiles Str: COc1ccc([C@@H]2CNC(=O)C2)cc1OC1CCCC1
Class Name: inactive

Smiles Str: NC[C@H]1O[C@H](O[C@H]2[C@@H](O)[C@@H](O[C@H]3O[C@H](CO)[C@@H](O)[C@H](N)[C@@H]3O)[C@H](N)C[C@@H]2N)[C@H](N)C[C@H]1O
Class Name: inactive

In the following, a different molecule is considered.
What outcome does the record of this test show for "COc1cc(C(=O)NC2CCN(C)CC2)ccc1Nc1ncc2c(n1)N(C1CCCC1)CCC(=O)N2C(C)C" ?
active
